- Study System: Peroxisome proliferator-activated receptor alpha (Homo sapiens, UniProt Q07869)
- Sequence (Q07869 whole entry): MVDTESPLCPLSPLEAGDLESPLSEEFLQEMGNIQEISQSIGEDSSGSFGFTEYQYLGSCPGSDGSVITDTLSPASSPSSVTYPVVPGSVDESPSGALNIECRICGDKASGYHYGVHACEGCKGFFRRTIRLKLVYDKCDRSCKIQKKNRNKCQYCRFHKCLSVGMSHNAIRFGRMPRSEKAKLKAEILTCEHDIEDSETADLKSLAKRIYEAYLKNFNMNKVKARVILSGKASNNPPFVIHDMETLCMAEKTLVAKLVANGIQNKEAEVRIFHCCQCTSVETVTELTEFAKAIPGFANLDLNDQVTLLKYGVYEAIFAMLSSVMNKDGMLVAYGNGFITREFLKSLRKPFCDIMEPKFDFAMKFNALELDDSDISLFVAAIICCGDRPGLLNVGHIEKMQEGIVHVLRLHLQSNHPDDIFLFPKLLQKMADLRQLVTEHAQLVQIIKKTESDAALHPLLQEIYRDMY
# 1 = IC50 below 0.7 µM (exclusive); -1 = IC50 at/above 0.7 µM

Solved entries (count: 5):
# Molecule, Study System, Group
measured = [
    ("Cc1oc(-c2ccccc2)nc1CCOc1ccc(C[C@@H]2C(=O)N(c3ccc(C(C)(C)C)cc3)[C@@H]2C(=O)O)cc1", "Peroxisome proliferator-activated receptor alpha (Homo sapiens, UniProt Q07869)", -1),
    ("Cc1oc(-c2ccc(Cl)cc2)nc1CCOc1cccc(C[C@@H]2C(=O)N(c3ccc(C(C)(C)C)cc3)[C@@H]2C(=O)O)c1", "Peroxisome proliferator-activated receptor alpha (Homo sapiens, UniProt Q07869)", 1),
    ("Cc1oc(-c2cccc(Cl)c2)nc1CCOc1cccc(C[C@@H]2C(=O)N(c3ccc(C(C)(C)C)cc3)[C@@H]2C(=O)O)c1", "Peroxisome proliferator-activated receptor alpha (Homo sapiens, UniProt Q07869)", -1),
    ("Cc1oc(-c2ccccc2)nc1CCOc1cccc(C[C@@H]2C(=O)N(c3ccc(C(C)(C)C)cc3)[C@@H]2C(=O)O)c1", "Peroxisome proliferator-activated receptor alpha (Homo sapiens, UniProt Q07869)", 1),
    ("Cc1oc(-c2ccccc2)nc1CCOc1cccc(CC2C(=O)N(c3ccc(Cl)cc3)C2C(=O)O)c1 (racemic)", "Peroxisome proliferator-activated receptor alpha (Homo sapiens, UniProt Q07869)", -1),
]

Does this molecule meet the criterion IC50 < 0.7 µM? `COc1cccc(-c2nc(CCOc3cccc(C[C@@H]4C(=O)N(c5ccc(C(C)(C)C)cc5)[C@@H]4C(=O)O)c3)c(C)o2)c1`
1

###

- Study System: Voltage-gated inwardly rectifying potassium channel KCNH2 (Homo sapiens, UniProt Q12809)
- Sequence (Q12809 whole entry): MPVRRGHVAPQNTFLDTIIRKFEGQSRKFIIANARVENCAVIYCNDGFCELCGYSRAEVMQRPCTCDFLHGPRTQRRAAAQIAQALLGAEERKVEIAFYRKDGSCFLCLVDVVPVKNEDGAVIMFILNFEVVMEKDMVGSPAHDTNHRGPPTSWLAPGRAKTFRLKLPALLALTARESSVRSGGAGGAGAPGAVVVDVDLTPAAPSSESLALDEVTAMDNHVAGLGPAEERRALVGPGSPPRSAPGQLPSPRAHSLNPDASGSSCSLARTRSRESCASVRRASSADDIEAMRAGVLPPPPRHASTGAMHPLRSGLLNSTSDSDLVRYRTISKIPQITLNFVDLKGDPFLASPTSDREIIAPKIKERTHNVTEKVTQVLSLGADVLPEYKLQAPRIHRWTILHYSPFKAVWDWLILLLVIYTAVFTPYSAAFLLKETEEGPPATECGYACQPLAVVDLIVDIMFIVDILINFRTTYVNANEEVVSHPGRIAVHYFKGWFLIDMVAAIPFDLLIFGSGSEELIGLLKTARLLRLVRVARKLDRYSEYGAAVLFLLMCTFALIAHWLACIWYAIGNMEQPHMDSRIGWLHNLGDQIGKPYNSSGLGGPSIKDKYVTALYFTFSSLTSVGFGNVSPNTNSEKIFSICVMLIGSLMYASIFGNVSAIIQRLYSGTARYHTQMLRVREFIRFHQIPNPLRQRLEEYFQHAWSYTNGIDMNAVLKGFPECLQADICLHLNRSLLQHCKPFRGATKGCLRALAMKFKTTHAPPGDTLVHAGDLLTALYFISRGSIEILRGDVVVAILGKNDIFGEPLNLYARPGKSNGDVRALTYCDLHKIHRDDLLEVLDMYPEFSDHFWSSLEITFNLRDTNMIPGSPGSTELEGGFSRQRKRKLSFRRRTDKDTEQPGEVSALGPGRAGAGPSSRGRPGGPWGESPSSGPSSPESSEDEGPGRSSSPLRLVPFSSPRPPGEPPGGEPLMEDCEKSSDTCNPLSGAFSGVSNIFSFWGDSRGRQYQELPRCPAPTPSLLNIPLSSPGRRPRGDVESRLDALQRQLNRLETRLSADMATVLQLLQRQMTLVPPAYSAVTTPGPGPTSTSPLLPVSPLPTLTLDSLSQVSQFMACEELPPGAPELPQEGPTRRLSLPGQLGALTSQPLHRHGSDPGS
- Assay Details: Inhibition of human ERG by FLIPR assay
Attribute Measured: IC50 (µM)
Answers are plain numbers, in µM.

The reported IC50 of the compound `COc1ccc(N2C(=O)[C@@H](Cc3ccc(OCCc4nc(-c5ccccc5)oc4C)cc3)[C@H]2C(=O)O)cc1` was 54

###

- Study System: Peroxisome proliferator-activated receptor gamma (Homo sapiens, UniProt P37231)
- Sequence (P37231 whole entry): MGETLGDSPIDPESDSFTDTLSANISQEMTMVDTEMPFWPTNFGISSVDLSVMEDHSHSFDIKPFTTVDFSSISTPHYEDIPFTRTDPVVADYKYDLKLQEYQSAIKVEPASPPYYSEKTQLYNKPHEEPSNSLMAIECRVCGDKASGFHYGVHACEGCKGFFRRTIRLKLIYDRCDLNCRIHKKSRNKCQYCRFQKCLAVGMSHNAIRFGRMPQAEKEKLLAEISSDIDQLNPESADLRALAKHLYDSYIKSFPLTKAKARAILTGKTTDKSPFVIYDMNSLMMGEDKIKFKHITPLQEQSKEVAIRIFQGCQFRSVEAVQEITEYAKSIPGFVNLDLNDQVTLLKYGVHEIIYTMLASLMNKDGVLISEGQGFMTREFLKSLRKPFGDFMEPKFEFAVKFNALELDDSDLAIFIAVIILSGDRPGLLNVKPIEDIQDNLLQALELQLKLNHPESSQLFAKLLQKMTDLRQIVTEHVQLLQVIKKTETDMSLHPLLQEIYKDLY
pEC50: −log10 of the molar value.
Label f if pEC50 falls below 7; label t in every other case.

Solved entries (count: 4):
# Compound, Study System, Group
data = [
    ("Cc1oc(-c2ccccc2)nc1CCOc1cccc(CC2C(=O)N(c3ccc(F)cc3)C2C(=O)O)c1 (racemic)", "Peroxisome proliferator-activated receptor gamma (Homo sapiens, UniProt P37231)", "t"),
    ("Cc1oc(-c2ccccc2)nc1CCOc1ccc(C[C@H]2C(=O)N(c3ccc(C(C)(C)C)cc3)[C@H]2C(=O)O)cc1", "Peroxisome proliferator-activated receptor gamma (Homo sapiens, UniProt P37231)", "f"),
    ("COc1cccc(-c2nc(CCOc3cccc(C[C@@H]4C(=O)N(c5ccc(C(C)(C)C)cc5)[C@@H]4C(=O)O)c3)c(C)o2)c1", "Peroxisome proliferator-activated receptor gamma (Homo sapiens, UniProt P37231)", "t"),
    ("COc1ccc(-c2nc(CCOc3cccc(C[C@@H]4C(=O)N(c5ccc(C(C)(C)C)cc5)[C@@H]4C(=O)O)c3)c(C)o2)cc1", "Peroxisome proliferator-activated receptor gamma (Homo sapiens, UniProt P37231)", "t"),
]

Hello, I need to know if `Cc1oc(-c2ccccc2)nc1CCOc1cccc(C[C@H]2C(=O)N(c3ccc(C(C)(C)C)cc3)[C@H]2C(=O)O)c1` has measured pEC50 not below 7. Thanks!
f

###

- Study System: Peroxisome proliferator-activated receptor gamma (Homo sapiens)
- Assay Details: Inhibition of PPARgamma
# Yes = IC50 below 200 nM (exclusive); No = IC50 at/above 200 nM

Solved entries (count: 5):
# Molecule, Group
records = [
    ("Cc1oc(-c2ccc(Cl)cc2)nc1CCOc1cccc(C[C@@H]2C(=O)N(c3ccc(C(C)(C)C)cc3)[C@@H]2C(=O)O)c1", "No"),
    ("Cc1oc(-c2cccc(Cl)c2)nc1CCOc1cccc(C[C@@H]2C(=O)N(c3ccc(C(C)(C)C)cc3)[C@@H]2C(=O)O)c1", "No"),
    ("Cc1oc(-c2ccccc2)nc1CCOc1cccc(C[C@@H]2C(=O)N(c3ccc(C(C)(C)C)cc3)[C@@H]2C(=O)O)c1", "Yes"),
    ("COc1ccc(N2C(=O)[C@@H](Cc3cccc(OCCc4nc(-c5ccccc5)oc4C)c3)[C@H]2C(=O)O)cc1", "Yes"),
    ("COc1ccc(N2C(=O)[C@H](Cc3cccc(OCCc4nc(-c5ccccc5)oc4C)c3)[C@@H]2C(=O)O)cc1", "No"),
]

Does this molecule meet the criterion IC50 < 200 nM? `CCCCCCCN(CCc1ccc(O[C@@](C)(CC)C(=O)O)cc1)C(=O)Nc1ccc(F)cc1F`
No

Does this molecule meet the criterion IC50 < 200 nM? COc1ccc(N2C(=O)C(Cc3cccc(OCCc4nc(-c5ccccc5)oc4C)c3)C2C(=O)O)cc1 (racemic)
Yes

Does this molecule meet the criterion IC50 < 200 nM? COc1ccc(N2C(=O)C(Cc3cccc(OCCc4nc(-c5ccccc5)oc4C)c3)C2C(=O)O)cn1 (racemic)
No

Does this molecule meet the criterion IC50 < 200 nM? Cc1oc(-c2ccccc2)nc1CCOc1cccc(CC2C(=O)N(c3ccc(Cl)cc3)C2C(=O)O)c1 (racemic)
No

Does this molecule meet the criterion IC50 < 200 nM? `COc1ccc(N2C(=O)[C@@H](Cc3ccc(OCCc4nc(-c5ccccc5)oc4C)cc3)[C@H]2C(=O)O)cc1`
Yes

Does this molecule meet the criterion IC50 < 200 nM? `COc1cccc(-c2nc(CCOc3cccc(C[C@@H]4C(=O)N(c5ccc(C(C)(C)C)cc5)[C@@H]4C(=O)O)c3)c(C)o2)c1`
Yes

Does this molecule meet the criterion IC50 < 200 nM? `Cc1oc(-c2ccccc2)nc1CCOc1ccc(C[C@H]2C(=O)N(c3ccc(C(C)(C)C)cc3)[C@H]2C(=O)O)cc1`
No

Does this molecule meet the criterion IC50 < 200 nM? `COc1ccc(-c2nc(CCOc3cccc(C[C@@H]4C(=O)N(c5ccc(C(C)(C)C)cc5)[C@@H]4C(=O)O)c3)c(C)o2)cc1`
No

Does this molecule meet the criterion IC50 < 200 nM? `COc1ccc(N2C(=O)[C@H](Cc3ccc(OCCc4nc(-c5ccccc5)oc4C)cc3)[C@@H]2C(=O)O)cc1`
No

Does this molecule meet the criterion IC50 < 200 nM? `Cc1oc(-c2ccccc2)nc1CCOc1ccc(C[C@@H]2C(=O)N(c3ccc(C(C)(C)C)cc3)[C@@H]2C(=O)O)cc1`
Yes

Does this molecule meet the criterion IC50 < 200 nM? Cc1oc(-c2ccccc2)nc1CCOc1cccc(CC2C(=O)N(c3ccc(F)cc3)C2C(=O)O)c1 (racemic)
Yes

Does this molecule meet the criterion IC50 < 200 nM? `Cc1oc(-c2ccccc2)nc1CCOc1cccc(C[C@H]2C(=O)N(c3ccc(C(C)(C)C)cc3)[C@H]2C(=O)O)c1`
No

###

Dear all, this message contains pEC50 results, target or system Peroxisome proliferator-activated receptor gamma (Homo sapiens).
Give bare numbers, as −log10 of the molar value.

Some compounds with recorded pEC50:
# Compound, pEC50
measured = [
    ("CCCCCCCN(CCc1ccc(O[C@@](C)(CC)C(=O)O)cc1)C(=O)Nc1ccc(F)cc1F", 6.61),
    ("COc1ccc(N2C(=O)[C@@H](Cc3ccc(OCCc4nc(-c5ccccc5)oc4C)cc3)[C@H]2C(=O)O)cc1", 7.70),
    ("Cc1oc(-c2ccc(Cl)cc2)nc1CCOc1cccc(C[C@@H]2C(=O)N(c3ccc(C(C)(C)C)cc3)[C@@H]2C(=O)O)c1", 7.22),
    ("Cc1oc(-c2ccccc2)nc1CCOc1cccc(CC2C(=O)N(c3ccc(Cl)cc3)C2C(=O)O)c1 (racemic)", 6.89),
    ("COc1ccc(N2C(=O)[C@@H](Cc3cccc(OCCc4nc(-c5ccccc5)oc4C)c3)[C@H]2C(=O)O)cc1", 7.05),
    ("COc1ccc(N2C(=O)[C@H](Cc3cccc(OCCc4nc(-c5ccccc5)oc4C)c3)[C@@H]2C(=O)O)cc1", 6.08),
]

# batch size: 3; output pEC50 per entry
1. COc1ccc(N2C(=O)C(Cc3cccc(OCCc4nc(-c5ccccc5)oc4C)c3)C2C(=O)O)cc1 (racemic)
2. Cc1oc(-c2ccccc2)nc1CCOc1ccc(C[C@@H]2C(=O)N(c3ccc(C(C)(C)C)cc3)[C@@H]2C(=O)O)cc1
3. COc1ccc(N2C(=O)C(Cc3cccc(OCCc4nc(-c5ccccc5)oc4C)c3)C2C(=O)O)cn1 (racemic)

6.74
8.40
7.15

Numbers sourced from ChEMBL document CHEMBL1142250.
